Target: IRAK4 protein in THP-1 cells (Homo sapiens (Human))
Sequence (Q9NWZ3 whole entry): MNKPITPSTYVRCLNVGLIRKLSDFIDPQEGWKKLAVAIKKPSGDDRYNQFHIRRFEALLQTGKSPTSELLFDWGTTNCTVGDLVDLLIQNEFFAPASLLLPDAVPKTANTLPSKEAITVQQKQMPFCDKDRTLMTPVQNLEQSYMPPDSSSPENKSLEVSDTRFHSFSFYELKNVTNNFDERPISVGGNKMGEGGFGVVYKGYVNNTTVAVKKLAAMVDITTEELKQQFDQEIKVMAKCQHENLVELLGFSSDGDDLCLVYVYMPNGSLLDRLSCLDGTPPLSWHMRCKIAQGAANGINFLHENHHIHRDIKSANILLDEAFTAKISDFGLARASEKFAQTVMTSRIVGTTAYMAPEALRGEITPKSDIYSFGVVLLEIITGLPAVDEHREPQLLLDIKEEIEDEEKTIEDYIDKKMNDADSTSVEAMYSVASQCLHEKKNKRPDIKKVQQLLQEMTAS
Experiment: PROTAC-induced IRAK4 protein degradation in THP-1 cells (Western Blot)
Format: cell-based
Settings: concentration that degraded 50% of IRAK4, Western blotting, 24 hours after administration
Method: 2.1 Based on the experimental method of Western Blot, specific antibodies were used to stain the THP-1 cell samples treated by gel electrophoresis, and the degrading activity of the compounds on the IRAK4 protein in THP-1 cells was determined by analyzing the position and depth of staining. The concentrations of compound for the detection included 0 μM, 0.3 μM, 1 μM and 3 μM, and the cells were treated by the compound for 8 hours, 16 hours, 24 hours, and 48 hours. […]
Metric Name: DC50 (nM)
Give the number; nM is assumed, so skip it.

Task item: Report DC50 for COc1cc2nn(C3CC4(CCN(CC5CCN(c6ccc7c(c6)C(=O)N(C6CCC(=O)NC6=O)C7=O)CC5)CC4)C3)cc2cc1NC(=O)c1cccc(C(F)(F)F)n1 (centres unmarked) [Compound I-13] tested on IRAK4 protein in THP-1 cells (Homo sapiens (Human)).
Reply: 15.8

Task item: Report DC50 for O=C1CCC(N2C(=O)c3ccc(N4CCN(C(=O)CN5CCC(n6cc7cc(NC(=O)c8cccc(C(F)(F)F)n8)c(OC(F)(F)F)cc7n6)CC5)CC4)cc3C2=O)C(=O)N1 (centres unmarked) [II-2] tested on IRAK4 protein in THP-1 cells (Homo sapiens (Human)).
Reply: 32.8

Task item: Report DC50 for CC(O)(c1cc2nn(C3CC4(CCN(C(=O)C5CCN(c6ccc7c(c6)C(=O)N(C6CCC(=O)NC6=O)C7=O)CC5)CC4)C3)cc2cc1NC(=O)c1cccc(C(F)(F)F)n1)C(F)(F)F (centres unmarked) [Compound I-12F] tested on IRAK4 protein in THP-1 cells (Homo sapiens (Human)).
Reply: 1.08

Task item: Report DC50 for COc1cc2nn(C3CC4(CCC(NC5CCN(c6ccc7c(c6)C(=O)N(C6CCC(=O)NC6=O)C7=O)CC5)CC4)C3)cc2cc1NC(=O)c1cccc(C(F)(F)F)n1 (centres unmarked) [Compound I-16] tested on IRAK4 protein in THP-1 cells (Homo sapiens (Human)).
Reply: 9.9

Task item: Report DC50 for COc1cc2nn(C3CC4(CCN(C(=O)C5CCN(c6ccc7c(c6)C(=O)N(C6CCC(=O)NC6=O)C7=O)CC5(F)F)CC4)C3)cc2cc1NC(=O)c1cccc(N2CCOCC2)n1 (centres unmarked) [Compound I-55] tested on IRAK4 protein in THP-1 cells (Homo sapiens (Human)).
Reply: 14.6

---

target: kinase IRAK4 (Homo sapiens (Human)); assay: Inhibitory effects of compounds on kinase activity (fluorescence microfluidic mobility detection, competitive with ATP); format: biochemical; conditions: Table 2; IRAK4 6 nM, ATP 10 μM, substrate FAM-P8 3 μM
pIC50: −log10 of the molar value.
Respond with yes (1) for pIC50 values of 8 and above, no (0) for values below.

Task item: pIC50 >= 8 for COc1cc2nn(C3CC4(CCN(C(=O)C5CCN(c6ccc7c(c6)C(=O)N([C@H]6CCC(=O)NC6=O)C7=O)CC5)CC4)C3)cc2cc1NC(=O)c1cccc(C(F)(F)F)n1 [Compound I-57] ?
Reply: no (0)

Task item: pIC50 >= 8 for COc1cc2nn(C3CC4(CCN(CC5CCN(c6ccc7c(c6)C(=O)N(C6CCC(=O)NC6=O)C7=O)CC5)CC4)C3)cc2cc1NC(=O)c1cccc(C(F)(F)F)n1 (centres unmarked) [Compound I-13] ?
Reply: yes (1)

Task item: pIC50 >= 8 for COc1cc2nn(C3CC4(CCN(C(=O)C5CCN(c6cc7c(cc6F)C(=O)N(C6CCC(=O)NC6=O)C7=O)CC5)CC4)C3)cc2cc1NC(=O)c1cccc(C(F)(F)F)n1 (centres unmarked) [Compound I-8] ?
Reply: no (0)

Task item: pIC50 >= 8 for O=C1CCC(N2C(=O)c3ccc(N4CCC(C(=O)N5CCC6(CC5)CC(n5cc7cc(NC(=O)c8cccc(C(F)(F)F)n8)c(N8CCOCC8)cc7n5)C6)CC4)cc3C2=O)C(=O)N1 (centres unmarked) [Compound I-9] ?
Reply: no (0)

Task item: pIC50 >= 8 for COc1cc2nn(C3CC4(CCN(C(=O)C5CC6(C5)CN(c5ccc7c(c5)C(=O)N(C5CCC(=O)NC5=O)C7=O)C6)CC4)C3)cc2cc1NC(=O)c1cccc(C(F)(F)F)n1 (centres unmarked) [Compound I-17] ?
Reply: no (0)

Task item: pIC50 >= 8 for COc1cc2nn(C3CC4(CCN(C(=O)C5CCN(c6ccc7c(c6)C(=O)N([C@@H]6CCC(=O)NC6=O)C7=O)CC5)CC4)C3)cc2cc1NC(=O)c1cccc(C(F)(F)F)n1 [Compound I-66] ?
Reply: no (0)

Task item: pIC50 >= 8 for COc1cc2nn(C3CC4(CCC(C(=O)N5CCN(c6ccc7c(c6)C(=O)N(C6CCC(=O)NC6=O)C7=O)CC5)CC4)C3)cc2cc1NC(=O)c1cccc(C(F)(F)F)n1 (centres unmarked) [Compound I-20] ?
Reply: no (0)

Task item: pIC50 >= 8 for COc1cc2nn(C3CCN(CC(=O)N4CCN(c5cccc6c5C(=O)N(C5CCC(=O)NC5=O)C6=O)CC4)CC3)cc2cc1NC(=O)c1cccc(C(F)(F)F)n1 (centres unmarked) [II-20] ?
Reply: yes (1)

---

Field: pIC50. Provide a value for each of the compounds that follow.
Target: kinase IRAK4 (Homo sapiens (Human), UniProt Q9NWZ3)
Sequence (Q9NWZ3 whole entry): as above
Assay: Inhibitory effects of compounds on kinase activity (fluorescence microfluidic mobility detection, competitive with ATP)
Assay type: biochemical
Details: Table 2; IRAK4 6 nM, ATP 10 μM, substrate FAM-P8 3 μM
Method: Based on an experimental method of fluorescence microfluidic mobility detection, an IC50 value of competitive binding of kinase IRAK4 to ATP by the compounds was determined. […] 5) Data reading: the CaliperEZ Reader II instrument was used to read the conversion rate data. […] 6) Data calculation: the conversion rate data was copied from CaliperEZ Reader II and converted into inhibition rate data. […]
// pIC50 is dimensionless: -log10 of concentration (M)

Task item: Record request: pIC50 value, item COc1cc2nn(C3CC4(CCN(C(=O)[C@H]5CC[C@H](CNc6ccc7c(c6)C(=O)N(C6CCC(=O)NC6=O)C7=O)CC5)CC4)C3)cc2cc1NC(=O)c1cccc(C(F)(F)F)n1 (stereo partly drawn) [Compound I-3]
Reply: 7.80

Task item: Record request: pIC50 value, item COc1cc2nn(C3CC4CCC(C3)N4CC(=O)N3CCN(c4ccc5c(c4)C(=O)N(C4CCC(=O)NC4=O)C5=O)CC3)cc2cc1NC(=O)c1cccc(C(F)(F)F)n1 (stereo not drawn) [II-13]
Reply: 7.98

Task item: Record request: pIC50 value, item COc1cc2nn(C3CC4(CCC(NC5CCN(c6ccc7c(c6)C(=O)N(C6CCC(=O)NC6=O)C7=O)CC5)CC4)C3)cc2cc1NC(=O)c1cccc(C(F)(F)F)n1 (stereo not drawn) [Compound I-16]
Reply: 7.94
